target: human PRMT1 (Homo sapiens, UniProt Q99873); construct: GST-tagged PRMT1; made in house; host or cells: High Five insect cells (baculovirus); test: biochemical; conditions: single experiment or average of multiple experiments; read-out: PRMT1 biochemical evaluation (numerical)
Sequence (Q99873 other isoform, or with tags, fused parts or gaps): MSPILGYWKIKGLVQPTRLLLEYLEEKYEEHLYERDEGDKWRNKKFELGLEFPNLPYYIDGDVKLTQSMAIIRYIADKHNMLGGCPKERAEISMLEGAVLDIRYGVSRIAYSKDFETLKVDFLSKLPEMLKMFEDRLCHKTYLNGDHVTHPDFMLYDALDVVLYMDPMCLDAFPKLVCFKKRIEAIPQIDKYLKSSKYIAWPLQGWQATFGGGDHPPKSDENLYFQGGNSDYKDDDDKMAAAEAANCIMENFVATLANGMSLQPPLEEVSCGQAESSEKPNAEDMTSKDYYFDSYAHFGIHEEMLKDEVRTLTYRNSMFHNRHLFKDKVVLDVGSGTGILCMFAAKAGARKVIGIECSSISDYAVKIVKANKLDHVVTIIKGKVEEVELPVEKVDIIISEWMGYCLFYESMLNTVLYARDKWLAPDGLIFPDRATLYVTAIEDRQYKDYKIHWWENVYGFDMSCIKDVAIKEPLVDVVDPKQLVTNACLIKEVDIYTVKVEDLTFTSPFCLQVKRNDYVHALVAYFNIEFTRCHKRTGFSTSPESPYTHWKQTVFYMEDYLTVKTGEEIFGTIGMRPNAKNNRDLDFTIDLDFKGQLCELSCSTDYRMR
pIC50: −log10 of the molar value.
Lab note: compare pIC50 against 7. Equal or greater, write yes (1). Smaller, write no (0).

Inquiry: Could you tell me if the measured pIC50 of CNCCN(C)Cc1n[nH]c2ccc(Oc3ccc(Cl)cc3)cc12 [Compound 57] reaches 7 or more?
Reply text: yes (1)

Inquiry: Could you tell me if the measured pIC50 of CNCCN(C)Cc1nn(C2CCN(C(C)=O)CC2)c2ccc(OCc3ccc(C#N)cc3)cc12 [Compound 38] reaches 7 or more?
Reply text: no (0)

Inquiry: Could you tell me if the measured pIC50 of CNCCN(C)Cc1n[nH]c2ccc(Oc3ccccc3)cc12 [Compound 10] reaches 7 or more?
Reply text: yes (1)

Inquiry: Could you tell me if the measured pIC50 of CNCCN(C)Cc1n[nH]c2ccc(N3CCC4(CCCCC4)CC3)cc12 [Compound 43] reaches 7 or more?
Reply text: no (0)

Inquiry: Could you tell me if the measured pIC50 of CNCCN(C)Cc1n[nH]c2ccc(OCCC(C)C)cc12 [Compound 8] reaches 7 or more?
Reply text: yes (1)

Inquiry: Could you tell me if the measured pIC50 of CNCCN(C)Cc1n[nH]c2ccc(C3=CCCCC3)cc12 [Compound 48] reaches 7 or more?
Reply text: yes (1)

Inquiry: Could you tell me if the measured pIC50 of CNCCN(C)Cc1n[nH]c2ccc(Oc3ccccc3C)cc12 [Compound 60] reaches 7 or more?
Reply text: no (0)

Inquiry: Could you tell me if the measured pIC50 of CNCCN(C)Cc1n[nH]c2ccc(OCc3cc[nH]n3)cc12 [Compound 17] reaches 7 or more?
Reply text: yes (1)

Inquiry: Could you tell me if the measured pIC50 of CNCCN(C)Cc1n[nH]c2ccc(OC(C)Cc3ccccc3)cc12 (centres unmarked) [Compound 9] reaches 7 or more?
Reply text: yes (1)

Inquiry: Could you tell me if the measured pIC50 of CNCCN(C)Cc1n[nH]c2ccc(OC3CCOCC3)cc12 [Compound 29] reaches 7 or more?
Reply text: yes (1)

Inquiry: Could you tell me if the measured pIC50 of CNCCN(C)Cc1n[nH]c2ccc(C3CCOCC3)cc12 [Compound 44] reaches 7 or more?
Reply text: yes (1)

Inquiry: Could you tell me if the measured pIC50 of CNCCN(C)Cc1n[nH]c2ccc(N3CCCCC3)cc12 [Compound 46] reaches 7 or more?
Reply text: yes (1)

Inquiry: Could you tell me if the measured pIC50 of CNCCN(C)Cc1n[nH]c2ccc(OCc3ccc(C(N)=O)cc3)cc12 [Compound 69] reaches 7 or more?
Reply text: yes (1)

Inquiry: Could you tell me if the measured pIC50 of CNCCN(C)Cc1n[nH]c2ccc(Oc3ccccc3OC)cc12 [Compound 24] reaches 7 or more?
Reply text: yes (1)

Inquiry: Could you tell me if the measured pIC50 of CNCCN(C)Cc1n[nH]c2ccc(OCc3ccn(CC(C)C)n3)cc12 [Compound 33] reaches 7 or more?
Reply text: yes (1)

====

target: human PRMT8 (Homo sapiens, UniProt Q9NR22); assay: biochemical; details: single experiment or average of multiple experiments; read-out: PRMT8 biochemical evaluation (numerical)
Sequence (Q9NR22 whole entry): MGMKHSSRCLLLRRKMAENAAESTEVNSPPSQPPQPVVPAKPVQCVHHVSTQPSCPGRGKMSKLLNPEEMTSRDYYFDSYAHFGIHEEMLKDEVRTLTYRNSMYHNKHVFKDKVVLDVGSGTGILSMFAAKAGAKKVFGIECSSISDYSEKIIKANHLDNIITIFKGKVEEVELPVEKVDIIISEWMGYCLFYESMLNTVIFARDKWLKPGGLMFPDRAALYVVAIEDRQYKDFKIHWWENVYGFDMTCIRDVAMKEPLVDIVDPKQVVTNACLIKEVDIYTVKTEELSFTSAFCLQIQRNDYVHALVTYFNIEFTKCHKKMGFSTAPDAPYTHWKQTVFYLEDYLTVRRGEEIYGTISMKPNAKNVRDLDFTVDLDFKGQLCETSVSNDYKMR
pIC50: −log10 of the molar value.
Lab note: compare pIC50 against 7. Equal or greater, write criterion met. Smaller, write criterion not met.

Inquiry: Could you tell me if the measured pIC50 of `CNCCN(C)Cc1n[nH]c2ccc(C(C)C)cc12` reaches 7 or more?
Reply text: criterion not met

Inquiry: Could you tell me if the measured pIC50 of `CNCCN(C)Cc1n[nH]c2ccc(N3CCC4(CCCCC4)CC3)cc12` reaches 7 or more?
Reply text: criterion not met

Inquiry: Could you tell me if the measured pIC50 of `CNCCN(C)Cc1n[nH]c2ccc(OCc3ccn(CC(C)C)n3)cc12` reaches 7 or more?
Reply text: criterion not met

Inquiry: Could you tell me if the measured pIC50 of `CNCCN(C)Cc1n[nH]c2ccc(C3CCOCC3)cc12` reaches 7 or more?
Reply text: criterion not met

Inquiry: Could you tell me if the measured pIC50 of `CNCCN(C)Cc1n[nH]c2ccc(OCc3ccc(C(C)=O)cc3)cc12` reaches 7 or more?
Reply text: criterion met

Inquiry: Could you tell me if the measured pIC50 of `CN(CCN)Cc1n[nH]c2ccc(OCc3ccccc3)cc12` reaches 7 or more?
Reply text: criterion not met

====

So I've got a bunch of compounds here, and I need their IC50 values.
molecular target: human PRMT1 (Homo sapiens); construct: GST-tagged PRMT1; made in house; host or cells: High Five insect cells (baculovirus); test: biochemical; conditions: biochemical evaluation, peptide substrate; read-out: PRMT1 IC50

Inquiry: Name the recorded IC50 of the compound listed here: `CNCCN(C)Cc1n[nH]c2ccc(Oc3cccc(C)c3)cc12`
Reply text: < 100 nM

Inquiry: Name the recorded IC50 of the compound listed here: `CNCCN(C)Cc1n[nH]c2ccc(Oc3ccc(C)cc3)cc12`
Reply text: < 100 nM

Inquiry: Name the recorded IC50 of the compound listed here: `CNCCN(C)Cc1n[nH]c2ccc(C3=CCOCC3)cc12`
Reply text: < 100 nM

Inquiry: Name the recorded IC50 of the compound listed here: `CNCCN(C)Cc1n[nH]c2ccc(N3CCC4(CCCCC4)CC3)cc12`
Reply text: < 100 nM

Inquiry: Name the recorded IC50 of the compound listed here: `CNCCN(C)Cc1n[nH]c2ccc(Oc3ccccc3)cc12`
Reply text: < 100 nM

Inquiry: Name the recorded IC50 of the compound listed here: `CNCCN(C)Cc1n[nH]c2ccc(OCc3ccn(C)n3)cc12`
Reply text: < 100 nM

Inquiry: Name the recorded IC50 of the compound listed here: `CNCCN(C)Cc1nn(C(C)C)c2ccc(OCc3ccc(C#N)cc3)cc12`
Reply text: 1010 to 3000 nM

Inquiry: Name the recorded IC50 of the compound listed here: `CNCCN(C)Cc1nn(C2CCN(C(C)=O)CC2)c2ccc(OCc3ccc(C#N)cc3)cc12`
Reply text: 3010 to 10000 nM

Inquiry: Name the recorded IC50 of the compound listed here: `CNCCN(C)Cc1n[nH]c2ccc(OCc3cc[nH]n3)cc12`
Reply text: < 100 nM

Inquiry: Name the recorded IC50 of the compound listed here: `CNCCN(C)Cc1n[nH]c2ccc(Oc3ccccc3Cl)cc12`
Reply text: < 100 nM

Inquiry: Name the recorded IC50 of the compound listed here: `CC(C)COc1ccc2[nH]nc(CN(C)CCN)c2c1`
Reply text: < 100 nM

Inquiry: Name the recorded IC50 of the compound listed here: `CNCCN(C)Cc1n[nH]c2ccc(OCc3ccc(C(C)(C)C)cc3)cc12`
Reply text: 101 to 1000 nM

Inquiry: Name the recorded IC50 of the compound listed here: `CCOc1ccc2[nH]nc(CN(C)CCNC)c2c1`
Reply text: 101 to 1000 nM

Inquiry: Name the recorded IC50 of the compound listed here: CNCCN(C)Cc1n[nH]c2ccc(OC3CCOC3)cc12 (centres unmarked)
Reply text: ≤ 100 nM

Inquiry: Name the recorded IC50 of the compound listed here: `CNCCN(C)Cc1n[nH]c2ccc(OCc3cccc(C(N)=O)c3)cc12`
Reply text: < 100 nM

Inquiry: Name the recorded IC50 of the compound listed here: `CNCCN(C)Cc1c2cc(OCc3ccc(C#N)cc3)ccc2nn1C(C)C`
Reply text: 3010 to 10000 nM

Inquiry: Name the recorded IC50 of the compound listed here: `CNCCN(C)Cc1n[nH]c2ccc(OC3CCCC3)cc12`
Reply text: < 100 nM

Inquiry: Name the recorded IC50 of the compound listed here: `CNCCN(C)Cc1n[nH]c2ccc(N3CCCCC3)cc12`
Reply text: < 100 nM

Inquiry: Name the recorded IC50 of the compound listed here: `CNCCN(C)Cc1n[nH]c2ccc(OCCOC)cc12`
Reply text: < 100 nM

Inquiry: Name the recorded IC50 of the compound listed here: `CNCCN(C)Cc1n[nH]c2ccc(Oc3ccccc3OC(C)C)cc12`
Reply text: < 100 nM

====

target: Human CARM1 (PRMT4) (Homo sapiens, UniProt Q86X55); construct: Flag-CARM1-His; made in house; host or cells: HEK 293F cells (BacMam baculovirus); experiment: CARM1 Biochemical Assay; settings: PRMT4 biochemical evaluation (numerical), single experiment or average of multiple experiments
Sequence (Q86X55 1-585 isoform Q86X55-1): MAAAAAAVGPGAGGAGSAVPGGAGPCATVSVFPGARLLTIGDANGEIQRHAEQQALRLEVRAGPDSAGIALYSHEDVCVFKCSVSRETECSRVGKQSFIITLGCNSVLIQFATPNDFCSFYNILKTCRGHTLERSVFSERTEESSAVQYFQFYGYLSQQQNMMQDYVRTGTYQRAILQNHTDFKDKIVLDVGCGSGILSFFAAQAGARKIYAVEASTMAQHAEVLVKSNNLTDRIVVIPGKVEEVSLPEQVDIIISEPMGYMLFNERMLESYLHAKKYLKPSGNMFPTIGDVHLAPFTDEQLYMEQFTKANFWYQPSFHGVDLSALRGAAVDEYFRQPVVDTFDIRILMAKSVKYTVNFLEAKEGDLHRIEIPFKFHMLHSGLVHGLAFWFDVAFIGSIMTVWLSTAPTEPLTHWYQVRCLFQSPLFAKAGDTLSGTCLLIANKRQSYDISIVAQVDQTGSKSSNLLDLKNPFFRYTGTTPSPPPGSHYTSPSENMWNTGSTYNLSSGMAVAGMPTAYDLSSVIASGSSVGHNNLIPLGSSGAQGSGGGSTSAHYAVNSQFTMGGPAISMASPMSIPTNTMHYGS
pIC50: −log10 of the molar value.
Lab note: compare pIC50 against 6. Equal or greater, write true. Smaller, write false.

Inquiry: Could you tell me if the measured pIC50 of `CNCCN(C)Cc1n[nH]c2ccc(OCc3ccc(C(F)(F)F)cc3)cc12` reaches 6 or more?
Reply text: false

Inquiry: Could you tell me if the measured pIC50 of CNCCN(C)Cc1n[nH]c2cccc(OCCCC(O)CO)c12 (stereo not drawn) reaches 6 or more?
Reply text: true

Inquiry: Could you tell me if the measured pIC50 of `CNCCN(C)Cc1n[nH]c2ccc(OCc3cccc(NC(C)=O)c3)cc12` reaches 6 or more?
Reply text: false

Inquiry: Could you tell me if the measured pIC50 of `CNCCN(C)Cc1n[nH]c2ccc(N3CCC4(CCCCC4)CC3)cc12` reaches 6 or more?
Reply text: false

Inquiry: Could you tell me if the measured pIC50 of `CNCCN(C)Cc1c2cc(OCc3ccc(C#N)cc3)ccc2nn1C(C)C` reaches 6 or more?
Reply text: true

Inquiry: Could you tell me if the measured pIC50 of `CNCCN(C)Cc1n[nH]c2ccc(Oc3cccc(C)c3)cc12` reaches 6 or more?
Reply text: true

Inquiry: Could you tell me if the measured pIC50 of `CNCCN(C)Cc1nn(C2CCN(C(C)=O)CC2)c2ccc(OCc3ccc(C#N)cc3)cc12` reaches 6 or more?
Reply text: false

Inquiry: Could you tell me if the measured pIC50 of `CNCCN(C)Cc1n[nH]c2ccc(C(C)C)cc12` reaches 6 or more?
Reply text: false

Inquiry: Could you tell me if the measured pIC50 of `CNCCN(C)Cc1n[nH]c2ccc(Oc3ccc(C#N)cc3)cc12` reaches 6 or more?
Reply text: false
